Documented IC50 across a set of compounds
- System: CEM-C1
- testSummary: OncoPanel cell proliferation assay, CEM-C1
- Format: cell-based, human
- settings: Homo sapiens, 72 h; CEM-C1, 3-day incubation; read-out: Cell Count IC50
Form entry: value (nM) — number only.

CO[C@H]1C[C@@H]2CC[C@@H](C)[C@@](O)(O2)C(=O)C(=O)N2CCCC[C@H]2C(=O)O[C@H]([C@H](C)C[C@@H]2C[C@@H]3C[C@H]2C[C@H]3O)CC(=O)[C@H](C)/C=C(\C)[C@@H](O)[C@@H](OC)C(=O)[C@H](C)C[C@H](C)/C=C/C=C/C=C/1C [Formula I, 37R-hydroxynorbornylrapamycin] :: 391

IC50 reading for CN[C@@H]1C[C@H]2O[C@@](C)([C@@H]1OC)n1c3ccccc3c3c4c(c5c6ccccc6n2c5c31)C(=O)NC4 [Staurosporine, reference compound] : 9.2
